- procedure details: Transepithelial transport of theaflavins across Caco-2 cell monolayers, with or without efflux transporter inhibitors
- Format: in vitro ADME, Human
- experimental context: human, Caco-2, with 100 μM MK-571 (MRP1, MRP2, MRP3 inhibitor), 2 h incubation, + 100 μM MK-571 (MRP1, MRP2, MRP3 inhibitor)
reported endpoint: efflux ratio at 2 h, 200 μM
The answer should be a number; do not append a unit.

Problem: Report efflux ratio at 2 h, 200 μM for O=C(O[C@@H]1Cc2c(O)cc(O)cc2O[C@@H]1c1cc(O)c(=O)c2c(O)c(O)cc([C@H]3Oc4cc(O)cc(O)c4C[C@H]3OC(=O)c3cc(O)c(O)c(O)c3)c2c1)c1cc(O)c(O)c(O)c1 [TFDG, theaflavin-3, 3’-digallate] please.
Result: 1.35
